Test: Cmax in Sprague-Dawley rat at 19 mg/kg, po measured up to 24 hrs
Format: ADME, organism-based
Set-up: route oral, dose 19 mg/kg, time <=24
Conditions: in vivo
Readout: Cmax (µM)
// return numeric value only (unit: µM, not printed)

Sample Cc1cc(Nc2ccc(S(F)(F)(F)(F)F)cc2)n2nc(C(F)(F)F)nc2n1 — what was its Cmax?
4

###

Experiment: AUC (0 to infinity) in Swiss mouse at […], po measured up to 24 hrs by LC-MS analysis
Type: ADME, organism-based
Parameters: route oral, dose 2.6 mg/kg, time <=24
Conditions: in vivo
Readout: AUC(0-inf) at 24 h (µM·h)
The answer is to be given in µM·h; state only the numeric part.

Give the measured AUC(0-inf) at 24 h of Cc1c(C2(c3ccc(C(F)(F)F)nc3)CC2)c[nH]c1C(=O)NC(C)c1nc[nH]n1 (stereo in doubt; form 1) .
29

###

Experiment: Cmax in Sprague-Dawley rat at 28 mg/kg, po measured up to 24 hrs
Assay type: ADME, organism-based
Set-up: route oral, dose 28 mg/kg, time <=24
Details: in vivo
Readout: Cmax (µM)
Report the value in µM with no unit label.

Which Cmax is reported for this compound? Cc1cc(C(C)NC(=O)c2[nH]cc(Cc3ccc(C(F)(F)F)nc3)c2C)no1 (stereo in doubt; form 1)
16

###

Experiment: Half life in Swiss mouse at 20 mg/kg, po measured up to 24 hrs by LC-MS analysis
Format: ADME, organism-based
Conditions: in vivo
Readout: half-life (h)
Please state the figure in h; there is no need to write the unit.

What value of measured half-life is listed for Cc1c(Cc2ccc(C(F)(F)F)nc2)c[nH]c1C(=O)NC(C)c1cn[nH]c1 (stereo in doubt; form 1) ?
4.4

Quick check: half-life of Cc1c(Cc2ccc(C(F)(F)F)nc2)c[nH]c1C(=O)NC(C)c1cnn(C)c1 (stereo in doubt; form 1) ?
3.5

Query: half-life; subject: Cc1cc(C(C)NC(=O)c2[nH]cc(Cc3ccc(C(F)(F)F)nc3)c2C)no1 (stereo in doubt; form 1)
2.3

###

pEC50 tested on Plasmodium falciparum: recorded values
In textbook form, pEC50 equals minus log to base ten of the concentration in mol/L.

For the compound shown here, Cc1cc(C(C)NC(=O)c2[nH]cc(Cc3ccc(C(F)(F)F)nc3)c2C)no1 (racemic) , give the reported pEC50.
8.05

Query (compound): Cc1cc(C(C)NC(=O)c2[nH]c(C)c(Cc3ccc(C(F)(F)F)nc3)c2C#N)no1 (stereo in doubt; form 1) ; field requested: pEC50
5.74

Which value of pEC50 has been reported for Cc1c(Cc2ccc(C(F)(F)F)nc2)c[nH]c1C(=O)NC(C)c1cc(C(N)=O)[nH]n1 (stereo in doubt; form 1) in the records?
7.62

For the compound Cc1cc(C(C)NC(=O)c2[nH]cc(Cc3ccc(C(F)(F)F)nc3)c2C)no1 (stereo in doubt; form 1) , what pEC50 is on record?
8.03
